Just for reference, paper PMC8470334 is where these values come from.

test system: HCT116 cell line; assay: MTS cell viability assay (CellTiter 96), HCT116; assay type: cell-based, human; settings: HCT116, 48 h exposure, MTS, mean ± SEM
TEST_READOUT: pIC50
In textbook form, pIC50 equals minus log to base ten of the concentration in mol/L.

response.value for N.N.[Cl][Pt][Cl] [Cisplatin, reference compound] (field: pIC50) = 4.81
